Values from ChEMBL document CHEMBL1141196

- assay-system: Integrin alpha-V/beta-5 (Homo sapiens, UniProt P06756+P18084)
- Sequence (P06756 31-889 limits assumed): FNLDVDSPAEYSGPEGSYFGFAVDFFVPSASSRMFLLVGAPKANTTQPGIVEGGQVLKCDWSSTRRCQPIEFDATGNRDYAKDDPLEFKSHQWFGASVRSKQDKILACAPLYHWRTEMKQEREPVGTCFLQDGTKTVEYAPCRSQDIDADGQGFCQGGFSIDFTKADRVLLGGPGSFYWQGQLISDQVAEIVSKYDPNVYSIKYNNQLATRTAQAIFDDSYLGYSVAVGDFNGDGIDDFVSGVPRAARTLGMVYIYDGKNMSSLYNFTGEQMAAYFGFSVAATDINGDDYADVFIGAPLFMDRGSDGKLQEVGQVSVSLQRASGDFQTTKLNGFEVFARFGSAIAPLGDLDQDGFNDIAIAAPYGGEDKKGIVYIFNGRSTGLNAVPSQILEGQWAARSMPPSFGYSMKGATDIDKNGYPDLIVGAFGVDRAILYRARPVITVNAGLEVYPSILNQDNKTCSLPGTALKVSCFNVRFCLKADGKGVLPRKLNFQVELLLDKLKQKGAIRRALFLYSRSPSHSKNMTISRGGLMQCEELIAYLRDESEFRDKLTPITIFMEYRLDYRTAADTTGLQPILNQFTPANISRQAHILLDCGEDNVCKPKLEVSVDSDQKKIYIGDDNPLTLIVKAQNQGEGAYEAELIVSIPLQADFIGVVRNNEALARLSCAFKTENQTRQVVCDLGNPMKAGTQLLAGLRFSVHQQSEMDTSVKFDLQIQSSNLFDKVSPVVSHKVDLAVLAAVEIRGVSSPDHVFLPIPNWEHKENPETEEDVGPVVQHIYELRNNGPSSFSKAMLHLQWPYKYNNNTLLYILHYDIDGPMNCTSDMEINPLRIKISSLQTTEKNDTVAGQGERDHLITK
- Sequence (P06756 891-1048 limits assumed): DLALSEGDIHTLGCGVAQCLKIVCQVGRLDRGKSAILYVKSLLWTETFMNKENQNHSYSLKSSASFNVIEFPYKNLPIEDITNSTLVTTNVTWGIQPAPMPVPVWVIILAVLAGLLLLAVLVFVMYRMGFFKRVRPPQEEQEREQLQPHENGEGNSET
- Sequence (P18084 24-799 limits assumed): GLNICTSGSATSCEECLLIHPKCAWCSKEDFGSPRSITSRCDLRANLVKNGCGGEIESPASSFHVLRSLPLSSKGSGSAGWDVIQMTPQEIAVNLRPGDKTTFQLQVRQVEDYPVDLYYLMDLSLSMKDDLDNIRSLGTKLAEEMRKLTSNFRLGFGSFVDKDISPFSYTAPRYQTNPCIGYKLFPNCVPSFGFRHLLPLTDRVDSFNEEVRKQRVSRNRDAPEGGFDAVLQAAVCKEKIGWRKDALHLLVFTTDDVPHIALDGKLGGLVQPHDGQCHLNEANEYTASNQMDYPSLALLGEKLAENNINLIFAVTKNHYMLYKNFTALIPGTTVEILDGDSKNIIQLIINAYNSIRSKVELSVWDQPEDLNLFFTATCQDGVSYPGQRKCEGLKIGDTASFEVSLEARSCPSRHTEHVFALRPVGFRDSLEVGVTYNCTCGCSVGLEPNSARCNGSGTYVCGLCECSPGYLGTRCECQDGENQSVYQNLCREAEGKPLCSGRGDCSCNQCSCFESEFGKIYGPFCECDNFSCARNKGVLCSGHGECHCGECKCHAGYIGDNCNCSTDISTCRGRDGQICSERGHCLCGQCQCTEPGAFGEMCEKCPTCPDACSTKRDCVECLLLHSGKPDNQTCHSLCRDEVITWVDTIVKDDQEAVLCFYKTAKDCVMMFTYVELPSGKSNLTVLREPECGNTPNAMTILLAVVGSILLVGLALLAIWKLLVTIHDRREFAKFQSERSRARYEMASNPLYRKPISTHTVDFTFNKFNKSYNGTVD
- assay-method-text: Displacement of [125I]-echistatin from alpha-v-beta-5 integrin receptor
Please assign n whenever IC50 is at or above 10 nM, and y whenever it is below.

Take a look at these entries with their results.
N=C(N)NCCC[C@@H]1NC(=O)[C@H]2CC[C@H](C2)NC(=O)[C@H](CC(=O)O)NC(=O)CNC1=O ... y
N=C(N)NCCC[C@@H]1NC(=O)[C@@H]2C[C@@H](O)[C@@H](C2)NC(=O)[C@H](CC(=O)O)NC(=O)CNC1=O ... n
N=C(N)NCCC[C@@H]1NC(=O)[C@@H]2CC[C@H](C2)NC(=O)[C@H](CC(=O)O)NC(=O)CNC1=O ... y
N=C(N)NCCC[C@@H]1NC(=O)[C@@H]2C[C@H](NC(=O)[C@H](CC(=O)O)NC(=O)CNC1=O)[C@@H](O)[C@@H]2O ... n

API: the following record is the query input.
IN: Lab log: compare recorded IC50 with 10 nM; is it strictly lower for N=C(N)NCCC[C@@H]1NC(=O)[C@@H]2CC[C@@H](C2)NC(=O)[C@H](CC(=O)O)NC(=O)CNC1=O ?
OUT: y

---

Attribute: pIC50
- assay-system: Integrin alpha-V/beta-3 (Homo sapiens, UniProt P05106+P06756)
- Sequence (P05106 27-788 limits assumed): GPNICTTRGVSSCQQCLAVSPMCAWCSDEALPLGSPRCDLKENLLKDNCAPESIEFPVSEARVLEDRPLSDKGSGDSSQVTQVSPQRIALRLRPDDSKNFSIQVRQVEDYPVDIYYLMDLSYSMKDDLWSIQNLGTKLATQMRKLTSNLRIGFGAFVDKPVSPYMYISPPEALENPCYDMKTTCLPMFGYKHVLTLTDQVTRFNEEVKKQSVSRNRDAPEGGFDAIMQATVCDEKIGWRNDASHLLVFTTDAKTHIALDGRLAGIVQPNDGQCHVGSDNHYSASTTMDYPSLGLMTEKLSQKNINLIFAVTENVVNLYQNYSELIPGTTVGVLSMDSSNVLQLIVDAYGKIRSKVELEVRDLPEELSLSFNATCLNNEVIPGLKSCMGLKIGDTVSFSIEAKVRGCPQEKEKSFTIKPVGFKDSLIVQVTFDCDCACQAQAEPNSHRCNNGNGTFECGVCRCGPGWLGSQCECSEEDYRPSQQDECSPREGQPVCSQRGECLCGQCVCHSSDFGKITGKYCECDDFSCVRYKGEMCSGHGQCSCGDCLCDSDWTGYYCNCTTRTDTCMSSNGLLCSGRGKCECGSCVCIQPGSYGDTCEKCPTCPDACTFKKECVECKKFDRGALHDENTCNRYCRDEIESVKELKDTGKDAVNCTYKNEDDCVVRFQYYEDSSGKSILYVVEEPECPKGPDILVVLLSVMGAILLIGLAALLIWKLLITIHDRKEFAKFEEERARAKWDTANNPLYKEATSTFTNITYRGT
- Sequence (P06756 31-889 limits assumed): as the sequence (P06756 31-889 limits assumed) above
- Sequence (P06756 891-1048 limits assumed): as the sequence (P06756 891-1048 limits assumed) above
- assay-method-text: Displacement of [125I]-echistatin from alphavbeta3 integrin receptor
As a rule, pIC50 stands for the negative log10 of the concentration, concentration in M.

Known pIC50 results, listed for orientation:
N=C(N)NCCC[C@@H]1NC(=O)[C@H]2CC[C@H](C2)NC(=O)[C@H](CC(=O)O)NC(=O)CNC1=O ... 8.34
N=C(N)NCCC[C@@H]1NC(=O)[C@H]2C[C@@H](NC(=O)[C@H](CC(=O)O)NC(=O)CNC1=O)[C@H](O)[C@H]2O ... 6.88
N=C(N)NCCC[C@@H]1NC(=O)[C@@H]2C[C@@H](O)[C@@H](C2)NC(=O)[C@H](CC(=O)O)NC(=O)CNC1=O ... 8.14
NC(N)=NCCC[C@@H]1NC(=O)[C@H]2CC[C@@H]3CCC[C@H](NC(=O)[C@H](CC(=O)O)NC(=O)CNC1=O)C(=O)N32 ... 8.85
N=C(N)NCCC[C@@H]1NC(=O)[C@H]2C[C@@H](NC(=O)[C@H](CC(=O)O)NC(=O)CNC1=O)[C@H](O)[C@@H]2O ... 6.15
N=C(N)NCCC[C@@H]1NC(=O)[C@@H]2C[C@H](NC(=O)[C@H](CC(=O)O)NC(=O)CNC1=O)[C@@H](O)C2 ... 8.25

IN: Missing value: pIC50, Integrin alpha-V/beta-3 (Homo sapiens, UniProt P05106+P06756), entry N=C(N)NCCC[C@@H]1NC(=O)[C@@H]2CC[C@@H](C2)NC(=O)[C@H](CC(=O)O)NC(=O)CNC1=O . Fill in?
OUT: 8.11

IN: Item: N=C(N)NCCC[C@@H]1NC(=O)[C@H]2CC[C@@H](C2)NC(=O)[C@H](CC(=O)O)NC(=O)CNC1=O
OUT: 8.00

---

- assay-system: Integrin alpha-V/beta-5 (Homo sapiens, UniProt P06756+P18084)
- assay-method-text: Displacement of [125I]-echistatin from alpha-v-beta-5 integrin receptor
quantity: IC50 (nM)
Give just the numeric value; nM need not be written.

NC(N)=NCCC[C@@H]1NC(=O)[C@H]2CC[C@@H]3CCC[C@H](NC(=O)[C@H](CC(=O)O)NC(=O)CNC1=O)C(=O)N32 ... 1.16
N=C(N)NCCC[C@@H]1NC(=O)[C@H]2C[C@@H](NC(=O)[C@H](CC(=O)O)NC(=O)CNC1=O)[C@H](O)[C@@H]2O ... 1300
N=C(N)NCCC[C@@H]1NC(=O)[C@H]2C[C@@H](NC(=O)[C@H](CC(=O)O)NC(=O)CNC1=O)[C@H](O)[C@H]2O ... 411
N=C(N)NCCC[C@@H]1NC(=O)[C@@H]2C[C@H](NC(=O)[C@H](CC(=O)O)NC(=O)CNC1=O)[C@@H](O)C2 ... 4.56
N=C(N)NCCC[C@@H]1NC(=O)[C@H]2CC[C@@H](C2)NC(=O)[C@H](CC(=O)O)NC(=O)CNC1=O ... 26
N=C(N)NCCC[C@@H]1NC(=O)[C@H]2C[C@H](NC(=O)[C@H](CC(=O)O)NC(=O)CNC1=O)[C@@H](O)C2 ... 29.6

Now consider the entry below.
IN: Missing value: IC50, Integrin alpha-V/beta-5 (Homo sapiens, UniProt P06756+P18084), entry N=C(N)NCCC[C@@H]1NC(=O)[C@@H]2C[C@H](NC(=O)[C@H](CC(=O)O)NC(=O)CNC1=O)[C@@H](O)[C@H]2O . Fill in?
OUT: 166
